Value source: ChEMBL document CHEMBL3856183

CC50 at 48 h reference
# PROTOCOL NOTES: Cytotoxicity against MDCK cells assessed as cell death after 2 days by MTT assay
# Assay type: toxicity, cell-based, Canis lupus familiaris
# ASSAY SETUP: dog
ASSAY READOUT: CC50 at 48 h (µM)

• CCCCCOC(=O)[C@]12CCC(C)(C)C[C@H]1C1=CC[C@@H]3[C@@]4(C)CC[C@H](O[C@@H]5O[C@H](CO)[C@@H](O[C@@H]6O[C@@H](C)[C@H](O)[C@@H](O)[C@H]6O)[C@H](O)[C@H]5O[C@@H]5O[C@@H](C)[C@H](O)[C@@H](O)[C@H]5O)C(C)(C)[C@@H]4CC[C@@]3(C)[C@]1(C)CC2 = 45.2
• C[C@@H]1O[C@@H](O[C@H]2[C@H](O[C@H]3CC[C@]4(C)[C@H]5CC=C6[C@@H]7CC(C)(C)CC[C@]7(C(=O)OCc7ccccc7)CC[C@@]6(C)[C@]5(C)CC[C@H]4C3(C)C)O[C@H](CO)[C@@H](O[C@@H]3O[C@@H](C)[C@H](O)[C@@H](O)[C@H]3O)[C@@H]2O)[C@H](O)[C@H](O)[C@H]1O = 75.4
• COC[C@]12CCC(C)(C)C[C@H]1C1=CC[C@@H]3[C@@]4(C)CC[C@H](O[C@@H]5O[C@H](CO)[C@@H](O[C@@H]6O[C@@H](C)[C@H](O)[C@@H](O)[C@H]6O)[C@H](O)[C@H]5O[C@@H]5O[C@@H](C)[C@H](O)[C@@H](O)[C@H]5O)C(C)(C)[C@@H]4CC[C@@]3(C)[C@]1(C)CC2 = 16.8
• COC(=O)[C@@]1(C)CC[C@]2(C)CC[C@]3(C)C(=CC(=O)[C@@H]4[C@@]5(C)CC[C@H](O[C@@H]6O[C@H](CO)[C@@H](O[C@@H]7O[C@@H](C)[C@H](O)[C@@H](O)[C@H]7O)[C@H](O)[C@H]6O[C@@H]6O[C@@H](C)[C@H](O)[C@@H](O)[C@H]6O)C(C)(C)[C@@H]5CC[C@]43C)[C@@H]2C1 = 33.8
• CCOC(=O)[C@]12CCC(C)(C)C[C@H]1C1=CC[C@@H]3[C@@]4(C)CC[C@H](O[C@@H]5O[C@H](CO)[C@@H](O[C@@H]6O[C@@H](C)[C@H](O)[C@@H](O)[C@H]6O)[C@H](O)[C@H]5O[C@@H]5O[C@@H](C)[C@H](O)[C@@H](O)[C@H]5O)C(C)(C)[C@@H]4CC[C@@]3(C)[C@]1(C)CC2 = 37.4
• COC(=O)[C@]12CCC(C)(C)C[C@H]1C1=CC(=O)[C@@H]3[C@@]4(C)CC[C@H](O[C@@H]5O[C@H](CO)[C@@H](O[C@@H]6O[C@@H](C)[C@H](O)[C@@H](O)[C@H]6O)[C@H](O)[C@H]5O[C@@H]5O[C@@H](C)[C@H](O)[C@@H](O)[C@H]5O)C(C)(C)[C@@H]4CC[C@@]3(C)[C@]1(C)CC2 = 17.9
